test: total protein half-life in vivo (active degradation + dilution); higher = more stable protein; conditions: wild type E. coli NCM3722; growth: N-lim chemostat; doubling time 12 h
# total protein half-life in vivo values compiled below

{"Sequence code": "MIQSQINRNIRLDLADAILLSKAKKDLSFAEIADGTGLAEAFVTAALLGQQALPADAARLVGAKLDLDEDSILLLQMIPLRGCIDDRIPTDPTMYRFYEMLQVYGTTLKALVHEKFGDGIISAINFKLDVKKVADPEGGERAVITLDGKYLPTKPF", "total protein half-life in vivo": "11.9 h"}
{"Sequence code": "MLKKFRGMFSNDLSIDLGTANTLIYVKGQGIVLNEPSVVAIRQDRAGSPKSVAAVGHDAKQMLGRTPGNIAAIRPMKDGVIADFFVTEKMLQHFIKQVHSNSFMRPSPRVLVCVPVGATQVERRAIRESAQGAGAREVFLIEEPMAAAIGAGLPVSEATGSMVVDIGGGTTEVAVISLNGVVYSSSVRIGGDRFDEAIINYVRRNYGSLIGEATAERIKHEIGSAYPGDEVREIEVRGRNLAEGVPRGFTLNSNEILEALQEPLTGIVSAVMVALEQCPPELASDISERGMVLTGGGALLRNLDRLLMEETGIPVVVAEDPLTCVARGGGKALEMIDMHGGDLFSEE [P0A9X4]", "total protein half-life in vivo": "12.1 h"}
{"Sequence code": "MTDMNILDLFLKASLLVKLIMLILIGFSIASWAIIIQRTRILNAAAREAEAFEDKFWSGIELSRLYQESQGKRDNLTGSEQIFYSGFKEFVRLHRANSHAPEAVVEGASRAMRISMNRELENLETHIPFLGTVGSISPYIGLFGTVWGIMHAFIALGAVKQATLQMVAPGIAEALIATAIGLFAAIPAVMAYNRLNQRVNKLELNYDNFMEEFTAILHRQAFTVSESNKG [P0ABU9]", "total protein half-life in vivo": "11.6 h"}

---

# total protein half-life in vivo values compiled below
assay: total protein half-life in vivo (active degradation + dilution); higher = more stable protein; details: E. coli NCM3722 delta-clpP delta-lon delta-hslV; growth: N-lim chemostat; doubling time 6 h
Test readout: total protein half-life in vivo

{"Sequence code": "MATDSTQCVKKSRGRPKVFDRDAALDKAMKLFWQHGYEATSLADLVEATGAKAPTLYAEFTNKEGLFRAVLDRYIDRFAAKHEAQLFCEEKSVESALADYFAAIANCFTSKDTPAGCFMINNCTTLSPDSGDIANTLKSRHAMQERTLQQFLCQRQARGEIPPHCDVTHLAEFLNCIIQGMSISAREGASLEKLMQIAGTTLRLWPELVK", "Result": "5.38 h"}
{"Sequence code": "MKQTQRHNGIIELVKQQGYVSTEELVEHFSVSPQTIRRDLNELAEQNLILRHHGGAALPSSSVNTPWHDRKATQTEEKERIARKVAEQIPNGSTLFIDIGTTPEAVAHALLNHSNLRIVTNNLNVANTLMVKEDFRIILAGGELRSRDGGIIGEATLDFISQFRLDFGILGISGIDSDGSLLEFDYHEVRTKRAIIENSRHVMLVVDHSKFGRNAMVNMGSISMVDAVYTDAPPPVSVMQVLTDHHIQLELC [P0ACL0]", "Result": "6.3 h"}
{"Sequence code": "MGAELVKWVKSHKIDAHIITFVAKMPYIDSIKLLEAGAKGCVWKTSHPAKLNRAIDSISNGYTYFDSVHMDCEKISSRYSSDNQLTNRESEILQLIADGKTNKEIANFLQLSRKTVETHRLNIMKKLDVHSGIELIKTALRMGVCTI", "Result": "5.42 h"}
{"Sequence code": "MLELNFSQTLGNHCLTINETLPANGITAIFGVSGAGKTSLINAISGLTRPQKGRIVLNGRVLNDAEKGICLTPEKRRVGYVFQDARLFPHYKVRGNLRYGMSKSMVDQFDKLVALLGIEPLLDRLPGSLSGGEKQRVAIGRALLTAPELLLLDEPLASLDIPRKRELLPYLQRLTREINIPMLYVSHSLDEILHLADRVMVLENGQVKAFGALEEVWGSSVMNPWLPKEQQSSILKVTVLEHHPHYAMTALALGDQHLWVNKLDEPLQAALRIRIQASDVSLVLQPPQQTSIRNVLRAKVVNSYDDNGQVEVELEVGGKTLWARISPWARDELAIKPGLWLYAQIKSVSITA", "Result": "5.74 h"}
{"Sequence code": "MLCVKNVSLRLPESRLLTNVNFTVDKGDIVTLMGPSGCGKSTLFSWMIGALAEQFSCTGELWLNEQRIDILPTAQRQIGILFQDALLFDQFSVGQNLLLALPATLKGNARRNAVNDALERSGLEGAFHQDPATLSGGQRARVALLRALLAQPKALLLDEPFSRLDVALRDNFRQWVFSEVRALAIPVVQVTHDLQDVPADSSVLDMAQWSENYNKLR", "Result": "6.28 h"}
{"Sequence code": "MDKIHAMQLFIKVAELESFSRAADFFALPKGSVSRQIQALEHQLGTQLLQRTTRRVKLTPEGMTYYQRAKDVLSNLSELDGLFQQDATSISGKLRIDIPPGIAKSLLLPRLSEFLYLHPGIELELSSHDRPVDILHDGFDCVIRTGALPEDGVIARPLGKLTMVNCASPHYLTRFGYPQSPDDLTSHAIVRYTPHLGVHPLGFEVASVNGVQWFKSGGMLTVNSSENYLTAGLAGLGIIQIPRIAVREALRAGRLIEVLPGYRAEPLSLSLVYPQRRELSRRVNLFMQWLAGVMKEYLD", "Result": "6.09 h"}

---

assay: total protein half-life in vivo (active degradation + dilution); higher = more stable protein; conditions: E. coli NCM3722 delta-lon; growth: N-lim chemostat; doubling time 6 h
total protein half-life in vivo below 5 h gives 0.0; total protein half-life in vivo at or above it gives 1.0.

{"Sequence code": "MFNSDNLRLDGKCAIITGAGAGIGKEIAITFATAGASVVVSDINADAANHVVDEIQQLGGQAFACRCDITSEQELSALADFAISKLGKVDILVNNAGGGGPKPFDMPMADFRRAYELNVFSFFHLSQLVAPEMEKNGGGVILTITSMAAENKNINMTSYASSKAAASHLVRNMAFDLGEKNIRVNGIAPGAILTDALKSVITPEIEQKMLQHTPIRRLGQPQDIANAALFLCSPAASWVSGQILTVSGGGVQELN [P0AET8]", "Label": 1.0}
{"Sequence code": "MIASKFGIGQQVRHSLLGYLGVVVDIDPVYSLSEPSPDELAVNDELRAAPWYHVVMEDDNGLPVHTYLAEAQLSSELQDEHPEQPSMDELAQTIRKQLQAPRLRN [P0AB20]", "Label": 0.0}
{"Sequence code": "MHYQPKQDLLNDRIILVTGASDGIGREAAMTYARYGATVILLGRNEEKLRQVASHINEETGRQPQWFILDLLTCTSENCQQLAQRIAVNYPRLDGVLHNAGLLGDVCPMSEQNPQVWQDVMQVNVNATFMLTQALLPLLLKSDAGSLVFTSSSVGRQGRANWGAYAASKFATEGMMQVLADEYQQRLRVNCINPGGTRTAMRASAFPTEDPQKLKTPADIMPLYLWLMGDDSRRKTGMTFDAQPGRKPGISQ", "Label": 0.0}
{"Sequence code": "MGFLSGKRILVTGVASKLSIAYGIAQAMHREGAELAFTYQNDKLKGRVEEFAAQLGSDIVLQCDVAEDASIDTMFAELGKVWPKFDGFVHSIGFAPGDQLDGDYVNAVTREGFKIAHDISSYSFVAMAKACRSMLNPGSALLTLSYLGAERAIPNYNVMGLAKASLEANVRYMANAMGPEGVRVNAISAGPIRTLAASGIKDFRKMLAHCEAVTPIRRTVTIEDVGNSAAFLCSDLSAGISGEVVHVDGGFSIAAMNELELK [P0AEK4]", "Label": 1.0}
{"Sequence code": "MVSRYVPDMGDLIWVDFDPTKGSEQAGHRPAVVLSPFMYNNKTGMCLCVPCTTQSKGYPFEVVLSGQERDGVALADQVKSIAWRARGATKKGTVAPEELQLIKAKINVLIG [P0AE70]", "Label": 1.0}

---

# total protein half-life in vivo values compiled below
experiment: total protein half-life in vivo (active degradation + dilution); higher = more stable protein; details: E. coli NCM3722 delta-smpB; growth: N-lim chemostat; doubling time 6 h
Test readout: total protein half-life in vivo (h)

{"Sequence code": "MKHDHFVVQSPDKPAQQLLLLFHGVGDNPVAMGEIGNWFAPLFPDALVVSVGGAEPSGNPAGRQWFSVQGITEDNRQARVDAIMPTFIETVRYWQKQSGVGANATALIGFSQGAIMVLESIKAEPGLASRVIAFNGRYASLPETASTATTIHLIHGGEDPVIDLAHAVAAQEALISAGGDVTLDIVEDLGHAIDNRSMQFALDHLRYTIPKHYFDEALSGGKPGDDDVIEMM", "Test readout": "total protein half-life in vivo", "Recorded number": 2.67}
{"Sequence code": "MIEIESRELADIPVLHAYPVGQKDTPLPCVIFYHGFTSSSLVYSYFAVALAQAGLRVIMPDAPDHGSRFSGDAARRLNQFWQILLQSMQEFTTLRAAIAEENWLLDDRLAVGGASMGAMTALGITARHPTVRCTASMMGSGYFTSLARSLFPPLIPETAAQQNEFNNIVAPLAEWEATNHLEQLSDRPLLLWHGLDDDVVPADESLRLQQALSETGRDKLLTCSWQPGVRHRITPEALDAAVTFFRQHL", "Test readout": "total protein half-life in vivo", "Recorded number": 3.95}
{"Sequence code": "MDLQHWQAQFENWLKNHHQHQDAAHDVCHFRRVWATAQKLAADDDVDMLVILTACYFHDIVSLAKNHPQRQRSSILAAEETRRLLREEFEQFPAEKIEAVCHAIAAHSFSAQIAPLTTEAKIVQDADRLEALGAIGLARVFAVSGALGVALFDGEDPFAQHRPLDDKRYALDHFQTKLLKLPQTMQTARGKQLAQHNAHFLVEFMAKLSAELAGENEGVDHKVIDAFSSAG", "Test readout": "total protein half-life in vivo", "Recorded number": 2.92}
